Please respond with reported IC50 for every item in the list.
Tested on: G. lamblia WB strain
Assay: In vitro susceptibility assay, G. lamblia trophozoites
Format: cell-based, Giardia lamblia
Settings: read-out: G. lamblia (IC50 nM); trophozoites, 48 h at 37 °C, subcultured 48 h, Probit analysis
Method: G. lamblia WB strain, T. vaginalis GT3 strain, and E. histolytica strain HM1-IMSS were used in all experiments, all parasitic strains were obtained from the Unidad de Investigación Médica en Enfermedades Infecciosas y Parasitarias, Hospital de Pediatría, Instituto Mexicano del Seguro Social. In vitro susceptibility assays to determine IC50 values were performed using a method previously described. […] Then, trophozoites were counted with a haemocytometer and the IC50 was calculated by Probit analysis. […]
Give bare numbers, in nM.

Sample records with IC50:
CCCCOC(=O)c1ccc2c(c1)[n+]([O-])c(C(=O)c1cccs1)c(C(F)(F)F)[n+]2[O-] : 27.3
CCCCOC(=O)c1ccc2c(c1)[n+]([O-])c(C(=O)OCC)c(C(F)(F)F)[n+]2[O-] : 26.1
CC(=O)c1c(C(F)(F)F)[n+]([O-])c2ccc(C(=O)OCC(C)C)cc2[n+]1[O-] : 25.5

Read the next record carefully.
## Task Request the reported IC50 associated with CCCCOC(=O)c1ccc2c(c1)[n+]([O-])c(C(=O)Nc1ccc(Cl)cc1)c(C)[n+]2[O-]
## Result 29.1

###

Tested on: T. vaginalis GT3 strain
Assay: In vitro susceptibility assay, T. vaginalis trophozoites
Format: cell-based, Trichomonas vaginalis
Details: Trichomonas vaginalis, GT3, 48 h, read-out: T. vaginalis (IC50 nM), trophozoites, 48 h at 37 °C, subcultured 48 h, Probit analysis
observed_property: IC50 (nM)
Numbers only, in nM.

CC(C)COC(=O)c1ccc2c(c1)[n+]([O-])c(C(=O)c1ccccc1)c(C(F)(F)F)[n+]2[O-] : 100
CCCCOC(=O)c1ccc2c(c1)[n+]([O-])c(C(=O)Nc1ccccc1)c(-c1ccccc1)[n+]2[O-] : 153
CCCCOC(=O)c1ccc2c(c1)[n+]([O-])c(C(=O)Nc1ccc(C)cc1C)c(C)[n+]2[O-] : 118
Cc1c(C(=O)Nc2ccccc2)[n+]([O-])c2cc(C(=O)OCC(C)C)ccc2[n+]1[O-] : 164
CCCCOC(=O)c1ccc2c(c1)[n+]([O-])c(C(C)=O)c(C)[n+]2[O-] : 258

## Task Request the reported IC50 associated with CC(C)COC(=O)c1ccc2c(c1)[n+]([O-])c(C(=O)c1ccco1)c(C(F)(F)F)[n+]2[O-]
## Result 125

###

System: murine macrophage cell line J774.2
Assay: Cytotoxic evaluation, MTT colorimetric assay
Type: cell-based
Details: murine macrophages J774.2, read-out: Cytotoxicity (Macrophages J774.2) (CC50)
Please respond with reported CC50 for every item in the list.
Give bare numbers, in µM.

Sample records with CC50:
CCCCOC(=O)c1ccc2c(c1)[n+]([O-])c(C(=O)Nc1ccc(Cl)cc1)c(C)[n+]2[O-] : 50.3
CC(C)COC(=O)c1ccc2c(c1)[n+]([O-])c(C(=O)c1ccco1)c(C(F)(F)F)[n+]2[O-] : 81.8
CC(=O)c1c(C)[n+]([O-])c2ccc(C(=O)OCC(C)C)cc2[n+]1[O-] : 87.2
CCCCOC(=O)c1ccc2c(c1)[n+]([O-])c(C(=O)Nc1ccccc1)c(-c1ccccc1)[n+]2[O-] : 44.1

Read the next record carefully.
## Task Request the reported CC50 associated with CC(=O)c1c(C(F)(F)F)[n+]([O-])c2ccc(C(=O)OCC(C)C)cc2[n+]1[O-]
## Result 25.4
